Taken from patent US6855515.

molecular target: T1, caspase-8 (UniProt Q14790 217-374; Q14790 385-479, limits assumed); test: Ki printed in running text; no assay described
T1 construct: also called purified caspase-8
T1 sequence (Q14790 217-374 limits assumed, form in doubt, chain 1 of 2): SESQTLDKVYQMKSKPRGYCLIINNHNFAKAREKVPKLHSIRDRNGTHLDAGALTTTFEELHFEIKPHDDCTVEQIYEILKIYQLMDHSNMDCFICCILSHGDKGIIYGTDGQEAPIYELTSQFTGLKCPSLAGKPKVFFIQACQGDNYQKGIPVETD
T1 sequence (Q14790 385-479 limits assumed, form in doubt, chain 2 of 2): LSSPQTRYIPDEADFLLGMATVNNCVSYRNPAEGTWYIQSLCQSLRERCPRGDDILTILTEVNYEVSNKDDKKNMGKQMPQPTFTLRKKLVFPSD
Quantity measured: Ki (nM)
Answers are plain numbers, in nM.

Value of Ki reported for the binder Ac-DEVD-aldehyde [Ac-DEVD-CHO, N-(N-Ac-Asp-Glu-Val)-3-amino-4-oxobutanoic acid] is 0.92
